biological target: Calmodulin-1 (Homo sapiens) (UniProt P0DP23); experiment: small molecules binding calmodulin-1 with EGTA – biochemical, small-molecule microarray, Cy5-labelled CALM1, profiling panel (AID 1111); conditions: Cy5-CALM1 binding fluorescence, higher = more signal;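 further: labelled calmodulin applied in Tris saline Tween buffer holding calcium plus EGTA and DTT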
measured.quantity: composite z-score
Give your answer as a number; write no unit.

Retrieve composite z-score measured for O=C1C2C=CC(C(O)c3cccs3)N(Nc3ccc([N+](=O)[O-])cc3)C2C(=O)N1c1ccccc1 (stereo unspecified) and print it.
0.439

Retrieve composite z-score measured for COc1ccc(C(=O)Nc2cccc(CN3C(=O)[C@]4(O[C@H](CC(=O)N5Cc6ccccc6C[C@H]5CO)[C@@H]([Si](C)(C)c5ccc(OC)cc5)[C@@H]4C)c4ccccc43)c2)cc1 and print it.
0.219

Retrieve composite z-score measured for O=C1[C@@H]2[C@@H](CC(COc3ccccc3)=C([C@H](O)CCc3ccccc3)[C@@H]2CO)C(=O)N1Cc1ccccc1 and print it.
0.615

Retrieve composite z-score measured for COC(=O)[C@@]1(Cc2ccc(OC)cc2)[C@H]2c3cc(C(=O)N4CCCC4)n(CCn4cc([N+](=O)[O-])nc4C)c3C[C@H]2CN1C(=O)c1ccccc1 and print it.
2.72

Retrieve composite z-score measured for COc1ccc([Si](C)(C)[C@H]2[C@H](CC(=O)N3Cc4ccccc4C[C@H]3CO)O[C@@]3(C(=O)N(c4ccccc4)c4ccccc43)[C@@H]2C)cc1 and print it.
0.392

Retrieve composite z-score measured for O=C(NCc1ccccc1)[C@@H]1c2ccccc2C(=O)N(Cc2ccc(OC(F)(F)F)cc2)[C@H]1c1ccc(CO)cc1 and print it.
-0.437
